# systemTested: Matrix metalloproteinase-9 (Homo sapiens, UniProt P14780)
# Sequence (P14780 whole entry, the tested form may be a part): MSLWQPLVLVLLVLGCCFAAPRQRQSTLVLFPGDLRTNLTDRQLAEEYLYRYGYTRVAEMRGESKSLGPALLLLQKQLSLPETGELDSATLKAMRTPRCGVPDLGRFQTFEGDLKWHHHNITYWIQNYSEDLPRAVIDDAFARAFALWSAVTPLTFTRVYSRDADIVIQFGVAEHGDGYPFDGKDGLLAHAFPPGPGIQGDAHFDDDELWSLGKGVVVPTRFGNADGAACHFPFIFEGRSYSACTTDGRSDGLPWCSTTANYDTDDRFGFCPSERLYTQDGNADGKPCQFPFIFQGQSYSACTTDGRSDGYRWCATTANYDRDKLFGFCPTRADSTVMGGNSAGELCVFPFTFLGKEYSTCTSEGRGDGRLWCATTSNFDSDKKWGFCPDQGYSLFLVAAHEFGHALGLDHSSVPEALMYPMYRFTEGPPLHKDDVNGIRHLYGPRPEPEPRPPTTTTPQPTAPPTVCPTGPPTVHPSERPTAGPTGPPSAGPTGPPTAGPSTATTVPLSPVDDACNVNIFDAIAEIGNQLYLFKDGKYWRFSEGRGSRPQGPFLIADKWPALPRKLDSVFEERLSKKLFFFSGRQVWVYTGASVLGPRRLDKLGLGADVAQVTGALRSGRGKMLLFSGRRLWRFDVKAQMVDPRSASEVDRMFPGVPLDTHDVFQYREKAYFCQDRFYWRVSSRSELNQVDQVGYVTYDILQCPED
# assayMethodText: Inhibition of recombinant human MMP9 catalytic domain (Phe107 to Pro449 residues) expressed in Escherichia coli cells using Mca-Pro-Leu-Gly-Leu-Dpa-Ala-Arg-NH2/TQ3-GABA-Pro-Cha-Abu-Smc-His-Ala-Dab(6'-TAMRA)-Ala-Lys-NH2 as fluorogenic substrate preincubated for 15 mins followed by substrate addition measured after 2 to 4 hrs by fluorometric assay
reportedEndpoint: IC50 (µM)

INSERT INTO results (smilesnotation, unitabbreviation, qual, recordedmeasurement) VALUES
  ('O=[N+]([O-])c1ccc(-c2nc3ccc(Br)cc3[nH]2)cc1', 'µM', '=', 10),
  ('O=[N+]([O-])c1ccc(-c2nc3ccccc3o2)cc1', 'µM', '=', 36),
  ('Cc1ccc2nc(-c3cccc(NC(=O)CN(C)Cc4ccccn4)c3)[nH]c2c1', 'µM', '>', 100),
  ('Cc1ccc2nc(-c3ccc([N+](=O)[O-])cc3)oc2c1', 'µM', '=', 18),
  ('O=C(O)c1ccc(-c2nc3ccc(Br)cc3[nH]2)cc1', 'µM', '=', 27),
  ('O=[N+]([O-])c1ccc(-c2nc3ccccc3s2)cc1', 'µM', '=', 11.5),
  ('O=C(CCc1ccccc1)Nc1ccc(-c2nc3ccccc3[nH]2)cc1', 'µM', '=', 29),
  ('O=C(CCc1ccccc1)Nc1cccc(-c2nc3ccccc3[nH]2)c1', 'µM', '=', 68),
  ('O=C(CCc1ccccc1)Nc1cccc(-c2nc3ccc(Br)cc3[nH]2)c1', 'µM', '=', 14.5),
  ('O=C(Nc1ccc(-c2nc3ccccc3[nH]2)cc1)c1ccc(Br)cc1', 'µM', '=', 41),
  ('Cc1cccc2nc(-c3cccc(NC(=O)CCCc4ccccc4)c3)[nH]c12', 'µM', '=', 38.6);

----------
# systemTested: 72 kDa type IV collagenase (Homo sapiens, UniProt P08253)
# Sequence (P08253 whole entry, the tested form may be a part): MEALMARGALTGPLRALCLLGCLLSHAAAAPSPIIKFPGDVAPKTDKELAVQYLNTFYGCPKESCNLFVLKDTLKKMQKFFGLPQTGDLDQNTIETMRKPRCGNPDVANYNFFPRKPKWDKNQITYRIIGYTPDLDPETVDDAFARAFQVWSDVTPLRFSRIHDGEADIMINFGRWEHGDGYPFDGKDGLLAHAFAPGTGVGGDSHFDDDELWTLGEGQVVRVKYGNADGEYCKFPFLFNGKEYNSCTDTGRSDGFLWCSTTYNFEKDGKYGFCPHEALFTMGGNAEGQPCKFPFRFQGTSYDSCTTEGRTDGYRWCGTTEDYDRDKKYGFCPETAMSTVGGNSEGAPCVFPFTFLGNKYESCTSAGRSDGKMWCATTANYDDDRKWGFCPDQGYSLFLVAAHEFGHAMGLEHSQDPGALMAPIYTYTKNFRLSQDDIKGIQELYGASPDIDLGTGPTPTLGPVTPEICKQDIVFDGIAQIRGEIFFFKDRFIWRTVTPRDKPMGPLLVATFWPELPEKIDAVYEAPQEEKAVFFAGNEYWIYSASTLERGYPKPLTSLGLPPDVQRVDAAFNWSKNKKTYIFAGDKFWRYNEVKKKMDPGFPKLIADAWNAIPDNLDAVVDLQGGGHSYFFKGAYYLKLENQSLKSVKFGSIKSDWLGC
# assayMethodText: Inhibition of recombinant human MMP2 catalytic domain (Tyr110 to Asp452 residues) expressed in yeast cells using Mca-Pro-Leu-Gly-Leu-Dpa-Ala-Arg-NH2/TQ3-GABA-Pro-Cha-Abu-Smc-His-Ala-Dab(6'-TAMRA)-Ala-Lys-NH2 as fluorogenic substrate preincubated for 15 mins followed by substrate addition measured after 2 to 4 hrs by fluorometric analysis
This section presents compounds with their documented IC50 values.
reportedEndpoint: IC50

INSERT INTO measurements (smilesnotation, recordedmeasurement) VALUES
  ('O=[N+]([O-])c1cccc(-c2nc3ccc(Br)cc3[nH]2)c1', '> 100 µM'),
  ('O=[N+]([O-])c1ccc(-c2nc3cc([N+](=O)[O-])ccc3[nH]2)cc1', '4.2 µM'),
  ('Nc1ccc(-c2nc3ccc(Br)cc3[nH]2)cc1', '10 µM'),
  ('Cc1cccc2nc(-c3cccc(NC(=O)CCCc4ccccc4)c3)[nH]c12', '60 µM'),
  ('Cc1ccc2nc(-c3ccc(NC(=O)CCc4ccccc4)cc3)[nH]c2c1', '25.3 µM'),
  ('COc1ccc(/C=C/C(=O)Nc2cccc(-c3nc4ccccc4[nH]3)c2)cc1', '48 µM'),
  ('Cc1ccc2nc(-c3cccc([N+](=O)[O-])c3)[nH]c2c1', '14 µM'),
  ('O=C(Nc1ccc(-c2nc3ccc(Br)cc3[nH]2)cc1)c1ccc([N+](=O)[O-])cc1', '3.1 µM'),
  ('O=C(CCc1ccccc1)Nc1ccc(-c2nc3ccc(Br)cc3[nH]2)cc1', '7 µM'),
  ('O=C(Nc1nc2ccccc2s1)c1ccc([N+](=O)[O-])cc1', '> 100 µM');

----------
# systemTested: UniProtKB P45452
# assayMethodText: Inhibition of recombinant human MMP13 catalytic domain (Tyr104 to Asn274 residues) expressed in Escherichia coli cells using Mca-Pro-Leu-Gly-Leu-Dpa-Ala-Arg-NH2/TQ3-GABA-Pro-Cha-Abu-Smc-His-Ala-Dab(6'-TAMRA)-Ala-Lys-NH2 as fluorogenic substrate preincubated for 15 mins followed by substrate addition measured after 2 to 4 hrs by fluorometric assay
reportedEndpoint: IC50 (µM)

INSERT INTO assay_data (smilesnotation, reportedendpoint, unitabbreviation, qual, recordedmeasurement) VALUES
  ('Cc1ccc2nc(-c3ccc(NC(=O)c4cccc([N+](=O)[O-])c4)cc3)[nH]c2c1', 'IC50', 'µM', '=', 2.2),
  ('O=C(CCCc1ccccc1)Nc1cccc(-c2nc3ccccc3[nH]2)c1', 'IC50', 'µM', '=', 81.2),
  ('O=C(Nc1nc2ccccc2s1)c1ccc([N+](=O)[O-])cc1', 'IC50', 'µM', '>', 100),
  ('O=C(CCc1ccccc1)Nc1cccc(-c2nc3ccc(Br)cc3[nH]2)c1', 'IC50', 'µM', '=', 73),
  ('O=C(O)c1ccc(-c2nc3ccc(Br)cc3[nH]2)cc1', 'IC50', 'µM', '=', 43);

----------
# systemTested: Collagenase 3 (Homo sapiens)
# assayMethodText: Inhibition of recombinant human MMP13 catalytic domain (Tyr104 to Asn274 residues) expressed in Escherichia coli cells using Mca-Pro-Leu-Gly-Leu-Dpa-Ala-Arg-NH2/TQ3-GABA-Pro-Cha-Abu-Smc-His-Ala-Dab(6'-TAMRA)-Ala-Lys-NH2 as fluorogenic substrate preincubated for 15 mins followed by substrate addition measured after 2 to 4 hrs by fluorometric assay
This section presents compounds with their documented IC50 values.
reportedEndpoint: IC50 (µM)

INSERT INTO results (smilesnotation, reportedendpoint, qual, recordedmeasurement) VALUES
  ('Cc1ccc2nc(-c3ccc(NC(=O)CCc4ccccc4)cc3)[nH]c2c1', 'IC50', '=', 17.9),
  ('Brc1ccc2nc(-c3ccccc3)[nH]c2c1', 'IC50', '>', 100),
  ('Cc1ccc2nc(-c3cccc(NC(=O)CN(C)Cc4ccccn4)c3)[nH]c2c1', 'IC50', '=', 93),
  ('O=S(=O)(Nc1cccc(-c2nc3ccccc3[nH]2)c1)c1ccccc1', 'IC50', '=', 94),
  ('Cc1ccc2nc(-c3ccc([N+](=O)[O-])cc3)oc2c1', 'IC50', '=', 9.4),
  ('O=C(CCc1ccccc1)Nc1ccc(-c2nc3ccccc3[nH]2)cc1', 'IC50', '=', 15.2);

----------
# systemTested: Matrix metalloproteinase-9 (Homo sapiens)
# assayMethodText: Inhibition of recombinant human MMP9 catalytic domain (Phe107 to Pro449 residues) expressed in Escherichia coli cells using Mca-Pro-Leu-Gly-Leu-Dpa-Ala-Arg-NH2/TQ3-GABA-Pro-Cha-Abu-Smc-His-Ala-Dab(6'-TAMRA)-Ala-Lys-NH2 as fluorogenic substrate preincubated for 15 mins followed by substrate addition measured after 2 to 4 hrs by fluorometric assay
pIC50: −log10 of the molar value.
reportedEndpoint: pIC50

INSERT INTO assay_data (smilesnotation, reportedendpoint, qual, recordedmeasurement) VALUES
  ('Cc1cccc2nc(-c3cccc(NC(=O)CCc4ccccc4)c3)[nH]c12', 'pIC50', '=', 4.22),
  ('O=C(Nc1nc2ccc(Cl)cc2s1)c1ccc([N+](=O)[O-])cc1', 'pIC50', '<', 4.00),
  ('Cc1ccc2oc(-c3ccc(NC(=O)c4ccc([N+](=O)[O-])cc4)cc3)nc2c1', 'pIC50', '=', 4.70),
  ('Nc1ccc(-c2nc3ccc(Br)cc3[nH]2)cc1', 'pIC50', '=', 4.66),
  ('O=[N+]([O-])c1ccc(-c2nc3ccccc3[nH]2)cc1', 'pIC50', '=', 4.25),
  ('Cc1ccc2nc(-c3ccc(NC(=O)CCc4ccccc4)cc3)[nH]c2c1', 'pIC50', '=', 4.22),
  ('O=[N+]([O-])c1ccc(-c2nc3cc([N+](=O)[O-])ccc3[nH]2)cc1', 'pIC50', '=', 4.63),
  ('O=C(Nc1ccc(-c2nc3ccccc3s2)cc1)c1ccccc1', 'pIC50', '=', 4.38),
  ('O=C(Nc1nc2ccccc2s1)c1ccc([N+](=O)[O-])cc1', 'pIC50', '<', 4.00),
  ('Cc1ccc2oc(-c3ccc([N+](=O)[O-])cc3)nc2c1', 'pIC50', '=', 4.83),
  ('Cc1ccc2nc(-c3ccc(NC(=O)c4ccc([N+](=O)[O-])cc4)cc3)[nH]c2c1', 'pIC50', '=', 4.97),
  ('Cc1ccc2nc(-c3ccc(NC(=O)c4ccccc4)cc3)[nH]c2c1', 'pIC50', '=', 4.55),
  ('O=[N+]([O-])c1cccc(-c2nc3ccc(Br)cc3[nH]2)c1', 'pIC50', '<', 4.00),
  ('O=C(CCCc1ccccc1)Nc1cccc(-c2nc3ccccc3[nH]2)c1', 'pIC50', '=', 4.37),
  ('Nc1ccc(-c2nc3ccccc3s2)cc1', 'pIC50', '=', 4.10),
  ('O=C(CCCc1ccccc1)Nc1ccc(-c2nc3ccc(Br)cc3[nH]2)cc1', 'pIC50', '=', 4.24),
  ('O=C(Nc1ccc(-c2nc3ccc(Br)cc3[nH]2)cc1)c1ccc([N+](=O)[O-])cc1', 'pIC50', '=', 5.19),
  ('O=C(Nc1cccc(-c2nc3ccccc3[nH]2)c1)c1ccccc1', 'pIC50', '=', 4.24),
  ('Cc1ccc2nc(-c3cccc([N+](=O)[O-])c3)[nH]c2c1', 'pIC50', '=', 4.44),
  ('O=[N+]([O-])c1ccc(-c2nc3ccccc3[nH]2)o1', 'pIC50', '=', 4.49),
  ('Cc1ccc2nc(-c3cccc(C(=O)NCCc4ccccc4)c3)[nH]c2c1', 'pIC50', '=', 4.42);
